Experiment: yeast display, Sf9 membrane polyspecificity reagent, FACS + sequencing; frameworks hold sequencing errors
measured attribute: polyreactivity (PSR sort gate)

A selection of reference data follows.
QVQLVESGGGLVQAGGSLRLSCAASGFIFDYYAMGWYRQAPGKERELVAAITSRSGSTYYADSVKGRFTISRDNAKNTVYLQMNSLKPEDTAVYYCAARRARRDPVGYVYAKYGYWGQGTQVTVSS | high polyreactivity
QVQLVESGGGLVQAGGSLRLSCAASGRIFGGYARGWYRQAPGKERELVAVINGGTSTKYADSVKGRFTISRDNAKNTVYLQMNSLKPEDTAVYYCAKTRHDSLQNRNRYDYWGQGTQVTVSS | low polyreactivity
QVQLVESGGGLVQAGGSLRLSCAASGRIFTDNAMGWYRQAPGKERELVAAISWDGSSTSYADSVKGRFTISRDNAKNTVYLQMNSLKPEDTAVYDCAAVLYSGLYWYRLDYWGQGTRVTVSS | low polyreactivity
QVQLVESGGGLVQSGGSLRLSCAASGFIFPVYTLGWYRHAPGKERELDAAITQIGGSTHYADSVKGRFTISRDNAKNTVYLQMNSLKPEDTAVFYCKAVPSYGTEYDYWGQGTQVTVSS | low polyreactivity

Per the record, QVQLVESGGGLVQAGGSLRLSCAASGIIFIWNTMGWYRQAPGKEREFVAAISRSGSGTSYADSVKGRFTISRDNAKNTVYLQMNSLKPEDTAVYYWDARLEWPYDMYYWGQGTQVTVSS has polyreactivity (PSR sort gate) of low polyreactivity

QVQLVESGGGLVQAGGSIRLSCSASGRIFNRNAMGWYRKAPGKERELVAAISSDTSTNYADSVKGRFTISRDNAKNNVYLQMNSLKPEDTAVYYCNADGYYDMDYWGQGTQVTVSS yielded polyreactivity (PSR sort gate) of low polyreactivity

get_value(item= QVQLVESGGGLVQAGGSLRLSCAPSGSTFYPNAKGWYRQAPRKERELVAAISRSGGSTYYADSVKGRFTISRDNAKNTVYLQMNSLKPEDTAVYYCAADGRSPARYDYWGQGTQVTVSS , readout=polyreactivity (PSR sort gate)) returns low polyreactivity

Field polyreactivity (PSR sort gate) (entry QVQLVESGGGLVQAGGSLRLSCAASGFTFEKYSMGWYRQAPGKERELVAAITQSAGSTYADSVKGRFTISRDNAKNTVYLQMISLKPEDTAVYYFAARYRYPYYARYGYWGQGTQVTVSS ) reads high polyreactivity
